Numbers sourced from patent US20260130395A1.

experiment: Stability of cannabinoid compounds and Vitamin E components in Beverage 2 (AB Red) by LCMSMS; assay type: physicochemical; conditions: stored at 8° C., 1 days
Decide using Stability of Plant-Derived Cannabinoid Compounds in AB Red alone. Strictly below 3 µg/mL: True. Equal to or above 3 µg/mL: False.

Problem: For the molecule CCCCCc1cc(O)c2c(c1)OC(C)(CCC=C(C)C)C=C2 (stereo not drawn) [CBC, cannabichromene] , is Stability of Plant-Derived Cannabinoid Compounds in AB Red under 3 µg/mL? True

Problem: For the molecule CCCCCc1cc(O)c2c(c1)OC(C)(C)[C@@H]1CCC(C)=C[C@@H]21 [D9 THC, delta-9-tetrahydrocannabinol, reference compound] , is Stability of Plant-Derived Cannabinoid Compounds in AB Red under 3 µg/mL? False

Problem: For the molecule C=C(C)[C@@H]1CCC(C)=C[C@H]1c1c(O)cc(CCCCC)c(C(=O)O)c1O [CBDA, cannabidiolic acid] , is Stability of Plant-Derived Cannabinoid Compounds in AB Red under 3 µg/mL? True

Problem: For the molecule CCCCCc1cc(O)c2c(c1)OC(C)(C)c1ccc(C)cc1-2 [CBN, cannabinol] , is Stability of Plant-Derived Cannabinoid Compounds in AB Red under 3 µg/mL? True

Problem: For the molecule CCCCCc1cc2c(c(O)c1C(=O)O)[C@@H]1C=C(C)CC[C@H]1C(C)(C)O2 [D9 THCA, delta-9-tetrahydrocannabinolic acid] , is Stability of Plant-Derived Cannabinoid Compounds in AB Red under 3 µg/mL? True

Problem: For the molecule CCCc1cc(O)c2c(c1)OC(C)(C)[C@@H]1CCC(C)=C[C@@H]21 [THCV, delta-9-tetrahydrocannabivarin] , is Stability of Plant-Derived Cannabinoid Compounds in AB Red under 3 µg/mL? False

Problem: For the molecule CCCCCc1cc(O)c(C/C=C(\C)CCC=C(C)C)c(O)c1 [CBG, cannabigerol] , is Stability of Plant-Derived Cannabinoid Compounds in AB Red under 3 µg/mL? False

Problem: For the molecule C=C(C)[C@@H]1CCC(C)=C[C@H]1c1c(O)cc(CCC)cc1O [CBDV, cannabidivarin] , is Stability of Plant-Derived Cannabinoid Compounds in AB Red under 3 µg/mL? True

Problem: For the molecule CCCCCc1cc(O)c2c(c1)OC1(C)CCC3C1C2C3(C)C (stereo not drawn) [CBL, cannabicyclol] , is Stability of Plant-Derived Cannabinoid Compounds in AB Red under 3 µg/mL? True

====

assay: Stability of cannabinoid compounds and Vitamin E components in Beverage 1 (AB White) by LCMSMS; format: physicochemical; settings: AB White stored at 21-25° C.; 60 days
REPORTED_ENDPOINT: Stability of Plant-Derived Cannabinoid Compounds in AB White, 21-25° C.
The reply must contain the numeric value and, after it, the unit.

Value of Stability of Plant-Derived Cannabinoid Compounds in AB White, 21-25° C. reported for the molecule CCCCCc1cc(O)c2c(c1)OC(C)(C)c1ccc(C)cc1-2 is 2.63 µg/mL

Value of Stability of Plant-Derived Cannabinoid Compounds in AB White, 21-25° C. reported for the molecule CCCCCc1cc2c(c(O)c1C(=O)O)[C@@H]1C=C(C)CC[C@H]1C(C)(C)O2 [D9 THCA, delta-9-tetrahydrocannabinolic acid] is 0.896 µg/mL

Value of Stability of Plant-Derived Cannabinoid Compounds in AB White, 21-25° C. reported for the molecule CCCCCc1cc(O)c2c(c1)OC(C)(C)[C@@H]1CCC(C)=C[C@@H]21 [D9 THC, delta-9-tetrahydrocannabinol, reference compound] is 11.9 µg/mL

Value of Stability of Plant-Derived Cannabinoid Compounds in AB White, 21-25° C. reported for the molecule C=C(C)[C@@H]1CCC(C)=C[C@H]1c1c(O)cc(CCC)cc1O is 0.149 µg/mL

Value of Stability of Plant-Derived Cannabinoid Compounds in AB White, 21-25° C. reported for the molecule CCCCCc1cc(O)c2c(c1)OC(C)(CCC=C(C)C)C=C2 (stereo not drawn) is 0.306 µg/mL

Value of Stability of Plant-Derived Cannabinoid Compounds in AB White, 21-25° C. reported for the molecule CCCCCc1cc(O)c(C/C=C(\C)CCC=C(C)C)c(O)c1 is 4.83 µg/mL

Value of Stability of Plant-Derived Cannabinoid Compounds in AB White, 21-25° C. reported for the molecule CCCCCc1cc(O)c2c(c1)OC1(C)CCC3C1C2C3(C)C (stereo not drawn) is 0.544 µg/mL

Value of Stability of Plant-Derived Cannabinoid Compounds in AB White, 21-25° C. reported for the molecule CCCc1cc(O)c2c(c1)OC(C)(C)[C@@H]1CCC(C)=C[C@@H]21 [THCV, delta-9-tetrahydrocannabivarin] is 3.50 µg/mL

Value of Stability of Plant-Derived Cannabinoid Compounds in AB White, 21-25° C. reported for the molecule C=C(C)[C@@H]1CCC(C)=C[C@H]1c1c(O)cc(CCCCC)c(C(=O)O)c1O is 1.68 µg/mL
